tested on: 653999-131-R-J2-PDC complex spheroids, growth % test/control; test: Anticancer human tumor 653999-131-R-J2-PDC patient-derived lung adenocarcinoma cell line growth inhibition [AhR]; settings: second compound 10 µM; first compound 1 µM; active compounds read low;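 note: spheroids exposed to agents for seven days; 100% = DMSO vehicle control viability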
MEASURED_QUANTITY: viability, T/C

Field: viability, T/C. Fill in for each record below.
1. O=C(C=Cc1cccc(S(=O)(=O)Nc2ccccc2)c1)NO + Cc1cncc(-c2nc(NCCc3c[nH]c4ccccc34)c3ncn(C(C)C)c3n2)c1
2. O=C(c1cc(Cc2n[nH]c(=O)c3ccccc23)ccc1F)N1CCN(C(=O)C2CC2)CC1 + Cc1ccccc1N=Nc1ccc(NC(=O)c2ccnn2C)c(C)c1

Response given:
1: 51.7%; 2: 82.3%

Value source: PubChem BioAssay AID1919000
